test system: Vero E6-eGFP cells; conditions: read-out: VeroE6 + CP (CC50), absence of virus, numeric values
Item-by-item account of CC50
Measure Name: CC50

| Compound | Measure Name | Result |
| --- | --- | --- |
| CC(C)(C)[C@H](NC(=O)C(F)(Cl)Cl)C(=O)N1C[C@H]2[C@@H]([C@H]1C(=O)N[C@H](C#N)C[C@@H]1CCNC1=O)[C@H]1C=C[C@@H]2C1 [Compound 48] | CC50 | > 50 µM |
| CC(C)(C)[C@H](NC(=O)C(F)(F)F)C(=O)N1C[C@H]2[C@@H]([C@H]1C(=O)NC(C[C@@H]1CCNC1=O)C(=O)C(=O)NC1CC1)[C@H]1C=C[C@@H]2C1 (some centres unmarked) [Example 10] | CC50 | > 50 µM |
| Cc1cc(C(=O)N[C@H](C(=O)N2C[C@H]3[C@@H]([C@H]2C(=O)N[C@H](C#N)C[C@@H]2CCNC2=O)[C@H]2C=C[C@@H]3C2)C(C)(C)C)no1 [Example 4] | CC50 | > 50 µM |
| CC(C)(C)[C@H](NC(=O)C(F)(F)F)C(=O)N1C[C@H]2[C@@H]([C@H]1C(=O)N[C@H](C#N)CC1Cn3ncnc3NC1=O)[C@H]1C=C[C@@H]2C1 (some centres unmarked) [Compound 51] | CC50 | > 50 µM |
| C#CC(C)(C)[C@H](NC(=O)C(F)(F)F)C(=O)N1C[C@H]2[C@@H]([C@H]1C(=O)N[C@H](C#N)C[C@@H]1CCNC1=O)[C@H]1C=C[C@@H]2C1 [Example 7] | CC50 | > 50 µM |
| CC(C)(C)[C@H](NC(=O)c1ccccn1)C(=O)N1C[C@H]2[C@@H]([C@H]1C(=O)N[C@H](C#N)C[C@@H]1CCNC1=O)[C@H]1C=C[C@@H]2C1 [Example 5] | CC50 | > 50 µM |
| C[C@@H](OC(C)(C)C)[C@H](NC(=O)C(F)(F)F)C(=O)N1C[C@H]2[C@@H]([C@H]1C(=O)N[C@H](C#N)C[C@@H]1CCNC1=O)[C@H]1C=C[C@@H]2C1 [Example 3] | CC50 | > 50 µM |
| CC1(C(=O)N[C@H](C(=O)N2C[C@H]3[C@@H]([C@H]2C(=O)N[C@H](C#N)C[C@@H]2CCNC2=O)[C@H]2C=C[C@@H]3C2)C(C)(C)C)CC1 [Compound 47] | CC50 | > 50 µM |

Attribution: patent US12252481B2
